Please find below IC50 data on UniProt P48736 compiled from the literature.

The cases that follow already have their IC50 on record.
>>> result("C=CS(=O)(=O)Nc1cccc(-c2csc3c(=O)cc(N4CCOCC4)oc23)c1")
"< 1000 nM"
>>> result("CC(=O)Nc1cccc(Nc2nc(-c3ccccc3)nc3c2cnn3C2CCNCC2)c1")
"8300 nM"
>>> result("C[C@H](Nc1ncnc2cccnc12)c1cc2cccc(Cl)c2c(CCN2CCOCC2)n1")
"< 1000 nM"
>>> result("Cc1cccc2cc([C@H](C)Nc3ncnc4[nH]cc(F)c34)n(-c3ccccc3)c(=O)c12")
"< 100 nM"
>>> result("CN1CCN(c2ccc(NC(=O)Nc3ccc4c(c3)C(=O)/C(=C/c3cn(C)c5nccc(N6CCC(C(=O)N(C)C)CC6)c35)O4)cn2)CC1")
"> 10000 nM"
>>> result("Cn1ncc2c(-c3ccc(N)nc3)nc(N3CCOCC3)nc21")
"100 to 10000 nM"

Send back UniProt P48736 IC50 of Cc1cccc2cc([C@H](C)Nc3nc(N)ncc3F)n(-c3ccccc3)c(=O)c12 only. < 1000 nM

Give IC50 for this entry on UniProt P48736: NCC(=O)N1CCN(c2cnc3ccc(-c4ccc5oc(N)nc5c4)nc3c2)CC1 < 1000 nM

// fetch IC50 for C[C@H](Nc1ccc2c(c1)OCCn1cc(N3CC(F)(F)COC3=O)nc1-2)C(N)=O ; system: UniProt P48736 2080 nM

Write IC50 of CC[C@H](Nc1ncnc2[nH]ccc12)c1nc2cccc(F)c2c(=O)n1-c1cccc(CC(F)(F)F)c1 ; system used: UniProt P48736 1300 nM

Look up and report measured IC50 (UniProt P48736) for the following molecule: Cc1nc(NC(=O)N[C@@H](CO)C(=O)OC2CCCC2)sc1-c1ccc(Cl)c(S(C)(=O)=O)c1 > 1000 nM

Recall the reported IC50 of Cn1cc(/C=C2\Oc3cc(O)cc(O)c3C2=O)c2c(-c3ccc(Oc4ccccc4)cc3)ccnc21 when tested on UniProt P48736. 66 nM

Quote IC50 with test system UniProt P48736 for Cn1cc(/C=C2\Oc3cccc(O)c3C2=O)c2c(N3CCSCC3)ccnc21 271 nM

Enter IC50 (test system UniProt P48736) for COc1ncc(-c2ccc3ncn(CC(F)(F)C(N)=O)c(=O)c3c2)cc1NS(=O)(=O)c1ccc(F)cc1Cl 8.37 nM
